Values from patent US4981788A

Documented Relative Activity (%) at 0.1 mM across a set of compounds
Target: acetylpolyamine amidohydrolase (the present enzyme, product purified to homogeneity) (Mycoplana ramosa, UniProt Q48935)
Construct: novel acetylpolyamine amidohydrolase of the present invention accumulated within the grown cells; made in house; host or cells: Mycoplana (natural producer)
Sequence (Q48935 whole entry): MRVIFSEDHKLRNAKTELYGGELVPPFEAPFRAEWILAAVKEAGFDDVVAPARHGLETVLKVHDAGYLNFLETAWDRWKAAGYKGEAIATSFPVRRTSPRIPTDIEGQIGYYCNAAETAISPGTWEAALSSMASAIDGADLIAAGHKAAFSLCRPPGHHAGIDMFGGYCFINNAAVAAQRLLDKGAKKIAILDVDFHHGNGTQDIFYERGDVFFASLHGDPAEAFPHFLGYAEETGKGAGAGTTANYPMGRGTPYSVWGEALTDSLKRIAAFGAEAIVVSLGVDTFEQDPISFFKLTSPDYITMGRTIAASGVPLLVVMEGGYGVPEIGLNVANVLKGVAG
Assay: Effects of various compounds upon enzyme activity, product purified to homogeneity (Method 1)
Type: biochemical, Mycoplana bullata
Conditions: compound 0.1 mM; 50 mM Tris-HCl pH 7.0, 37° C., 10 minutes; residual activity

COMPOUND: [Cl-].[Cl-].[Zn+2]
Relative Activity (%) at 0.1 mM: 1

COMPOUND: O=S(=O)(F)Cc1ccccc1 [Phenylmethanesulfonyl fluoride]
Relative Activity (%) at 0.1 mM: 86

COMPOUND: O=[N+]([O-])[O-].[Ag+]
Relative Activity (%) at 0.1 mM: 107

COMPOUND: [Cl-].[Cl-].[Mg+2]
Relative Activity (%) at 0.1 mM: 87

COMPOUND: O=C(O)c1cc[c]([Hg][Cl])cc1
Relative Activity (%) at 0.1 mM: 107
